- target-under-test: DLG2_2, Q15700
- Sequence (Q15700 189-283): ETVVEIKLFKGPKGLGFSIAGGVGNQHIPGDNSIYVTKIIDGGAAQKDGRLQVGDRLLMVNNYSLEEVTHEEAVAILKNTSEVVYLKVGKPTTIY
- measurement-protocol: holdup assay
- Design: key: below the threshold = too weak to quantify, mostly under pKd 3.1 to 4
- condition-details: plain residues with an end cap or a label only (N-terminal biotin on a linker: ado-ado)
endpoint: pKd

Sample answers from the record:
binder	pKd
QGPVETESVV [SLC45A4, Q5BKX6]	4.45
QKNRKAQEDL [CES3, Q6UWW8]	below the threshold
SSALYGESDL [ACTN2, P35609]	3.52
QMNQTLPVQV [EPHB3, P54753]	below the threshold
KKAPTNEFYA [SDC4, P31431]	below the threshold

Here is the next item to consider.
Consider VYPNAKVELV [PDLIM4_iso2, P50479;P50479-1] . Its measured pKd is below the threshold
